Molecular target: Human recombinant PDE10A (hPDE10A) (Homo sapiens)
Construct: His tag (inferred from metal chelate purification); made in house; host or cells: Sf9 insect cells (baculovirus)
Sequence (Q9Y233 267-1055): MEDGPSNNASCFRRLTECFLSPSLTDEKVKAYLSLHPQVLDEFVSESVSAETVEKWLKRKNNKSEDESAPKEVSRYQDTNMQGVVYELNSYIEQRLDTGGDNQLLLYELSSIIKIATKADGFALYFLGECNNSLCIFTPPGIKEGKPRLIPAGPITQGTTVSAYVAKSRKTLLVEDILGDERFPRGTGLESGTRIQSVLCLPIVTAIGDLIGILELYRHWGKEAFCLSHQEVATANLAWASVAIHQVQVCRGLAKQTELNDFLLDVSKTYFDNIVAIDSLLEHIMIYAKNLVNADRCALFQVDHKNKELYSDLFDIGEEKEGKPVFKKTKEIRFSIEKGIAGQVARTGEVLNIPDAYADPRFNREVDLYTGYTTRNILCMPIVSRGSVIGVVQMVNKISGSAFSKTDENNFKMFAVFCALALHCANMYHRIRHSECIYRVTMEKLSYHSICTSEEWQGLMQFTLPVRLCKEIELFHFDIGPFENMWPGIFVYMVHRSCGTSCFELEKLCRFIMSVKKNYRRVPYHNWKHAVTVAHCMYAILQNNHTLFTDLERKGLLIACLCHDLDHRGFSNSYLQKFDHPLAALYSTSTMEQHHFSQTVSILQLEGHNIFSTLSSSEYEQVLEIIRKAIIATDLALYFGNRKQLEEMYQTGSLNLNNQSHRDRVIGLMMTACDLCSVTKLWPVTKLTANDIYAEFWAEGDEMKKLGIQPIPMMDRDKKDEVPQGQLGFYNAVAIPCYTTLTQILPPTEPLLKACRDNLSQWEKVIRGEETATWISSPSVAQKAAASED
Experiment: In vitro assay PDE10A, human clone (SPA, 3H-cAMP hydrolysis)
Type: biochemical
Conditions: human clone (h), default; read-out: hPDE10A2 Emax
Listing of recorded Emax by entry.
Give the quantity in %, number only.

C[C@@H]1CCN(C(=O)c2cnc(N(C)C)nc2)C[C@H]1c1cc(C(F)F)nc2ncnn12 :: 88
COc1cc(C(=O)N2CC[C@@H](C)[C@H](c3cc(C)nc4ncnn34)C2)cc(Cl)n1 :: 99

Inquiry: Fill in: Emax of `C[C@@H]1CCN(C(=O)c2ccc(F)c(F)c2F)C[C@H]1c1cc(C(F)F)nc2ncnn12` is ___
Reply text: 79

Inquiry: Need Emax, item `C[C@@H]1CCN(C(=O)c2cc(F)ccn2)C[C@H]1c1cc(C(F)F)nc2ncnn12`
Reply text: 64

Inquiry: Entry `Cc1cc([C@@H]2CN(C(=O)c3cnc(Cl)c(Cl)c3)CC[C@H]2C)n2ncnc2n1` : reported Emax = ?
Reply text: 97

Inquiry: Could you share which Emax value was measured for `Cc1cc([C@H]2CN(C(=O)c3ccc4ncsc4c3)CC[C@@H]2C)n2ncnc2n1` ?
Reply text: 95

Inquiry: So what does the record say about Emax for `Cc1cc(C(=O)N2CC[C@@H](C)[C@H](c3cc(C(F)F)nc4ncnn34)C2)c(C)s1` ?
Reply text: 95

Inquiry: Form field: reported Emax of `Cc1nc(C(=O)N2CC[C@H](C)[C@H](c3cc(C(F)F)nc4ncnn34)C2)ccc1F`
Reply text: 71

Inquiry: Which Emax is listed for `COc1cccc2cc(C(=O)N3CC[C@@H](C)[C@H](c4cc(C(F)F)nc5ncnn45)C3)oc12` ?
Reply text: 101

Inquiry: Bench note: what Emax did `C[C@@H]1CCN(C(=O)c2cnc3ccccc3c2O)C[C@H]1c1cc(C(F)F)nc2ncnn12` show?
Reply text: 76

Inquiry: // query Emax value for entry `C[C@@H]1CCN(C(=O)c2ncc[nH]2)C[C@H]1c1cc(C(F)F)nc2ncnn12`
Reply text: 51

Inquiry: Which Emax is reported for this compound? `C[C@@H]1CCN(C(=O)c2ccc3c(c2)OCCC3)C[C@H]1c1cc(C(F)F)nc2ncnn12`
Reply text: 95

Inquiry: // query Emax value for entry `Cc1ccc(C(=O)N2CC[C@@H](C)[C@H](c3cc(C(F)F)nc4ncnn34)C2)nc1C`
Reply text: 88

Inquiry: Name the reported Emax value associated with the compound `C[C@@H]1CCN(C(=O)c2ccc(F)cn2)C[C@H]1c1cc(C(F)F)nc2ncnn12`
Reply text: 53

Inquiry: What does the data say about its Emax? Entry: `C[C@@H]1CCN(C(=O)c2ccc(Cl)c(C(F)(F)F)c2)C[C@H]1c1cc(C(F)F)nc2ncnn12`
Reply text: 98

Inquiry: So what's the measured Emax for this one? `Cc1cc(C(=O)N2CC[C@@H](C)[C@H](c3cc(C(F)F)nc4ncnn34)C2)cc(C)c1F`
Reply text: 99
